Collected pIC50 values appear next to each entry.
tgt: human recombinant BACE2 (Homo sapiens (Human), UniProt Q9Y5Z0)
Sequence (Q9Y5Z0 63-518): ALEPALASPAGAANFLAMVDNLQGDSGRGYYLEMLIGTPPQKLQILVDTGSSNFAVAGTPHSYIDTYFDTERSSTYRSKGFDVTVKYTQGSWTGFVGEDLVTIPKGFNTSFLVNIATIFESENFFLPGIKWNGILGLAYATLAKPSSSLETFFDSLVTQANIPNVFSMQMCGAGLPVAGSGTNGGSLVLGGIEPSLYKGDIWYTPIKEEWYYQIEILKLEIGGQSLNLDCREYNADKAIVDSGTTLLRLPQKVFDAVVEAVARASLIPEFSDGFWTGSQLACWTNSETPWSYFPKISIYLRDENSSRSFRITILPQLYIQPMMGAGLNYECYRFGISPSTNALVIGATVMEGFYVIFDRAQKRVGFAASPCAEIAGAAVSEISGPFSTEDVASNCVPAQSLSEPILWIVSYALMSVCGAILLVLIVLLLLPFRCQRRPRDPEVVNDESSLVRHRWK
protocol.description: In vitro enzymatic BACE2 FRET assay
condition.label: read-out: BACE2 Enzyme IC50
Friendly reminder that pIC50 comes from taking -log10 of the concentration in mol/L.

Return pIC50 (reported value) for this compound: CN1C(N)=N[C@](C)(c2cc(/C=C(\F)c3ncc(C#N)cc3Cl)ccc2F)CS1(=O)=O [Example 269] 8.52

Return pIC50 (reported value) for this compound: C[C@]1(c2cc(/C=C(\F)c3cnc(OCC(F)(F)F)cn3)ccc2F)N=C(N)[C@@]2(CF)CC[C@@H]1S2(=O)=O [Example 109] 6.78

Return pIC50 (reported value) for this compound: CN1C(N)=N[C@](C)(c2cc(/C=C(\F)c3cnc(OCC#CCF)cn3)ccc2F)CS1(=O)=O [Example 254] 7.28

Return pIC50 (reported value) for this compound: CN1C(N)=N[C@](C)(c2cc(/C=C(\F)c3ncc(C#N)cc3Cl)cc(F)c2F)CS1(=O)=O [Example 276] 8.22

Return pIC50 (reported value) for this compound: CC#C[C@H](C)Oc1cnc(/C(F)=C/c2ccc(F)c([C@]3(C)CS(=O)(=O)C(C)(C)C(N)=N3)c2)cn1 (single isomer, unassigned) [Example 208] 6.97

Return pIC50 (reported value) for this compound: CN1C(N)=N[C@](C)(c2cc(/C=C(\F)c3cnc(C4CC4)cn3)ccc2F)CS1(=O)=O [Example 266] 7.11

Return pIC50 (reported value) for this compound: CN1C(N)=N[C@](C)(c2cc(/C=C(\F)c3ccc(C(F)(F)F)cn3)cc(F)c2F)CS1(=O)=O [Example 273] 7.34
